test system: IN/WHO strain house flies; assay: topical application, percent kill after 24 hours, susceptible IN/WHO strain; type: in vivo, female); settings: Mobam 0.20 + synergist 1 μg/fly
In this section we review reported percent kill after 24 hours, with Mobam values for a set of compounds.
Write the value in % as a bare number.

Worked cases, percent kill after 24 hours, with Mobam given:
C#CCOCc1ccc([N+](=O)[O-])c(Cl)c1 :: 60
C#CCOCc1ccc(Cl)c(Cl)c1Cl :: 100
C#CCOCc1ccc(Cl)c([N+](=O)[O-])c1 :: 90

Let us examine a further case.
[in] // fetch percent kill after 24 hours, with Mobam; item: "C#CCOCc1ccc(Cl)cc1[N+](=O)[O-]" ; system: IN/WHO strain house flies
[out] 100

====

tested on: male mice; assay: extension of sleeping time of depressant drugs by synergists; format: in vivo, male mice (Swiss albino white); conditions: Secobarbital 37 mg/kg; synergist 110 mg/kg one hour prior
1 means recorded Mean Sleeping Time, Secobarbital is 50 min or above; 0 means it is below 50 min.

[in] Tell me whether Mean Sleeping Time, Secobarbital is at least 50 min here: C#CCOCc1ccc(Cl)c(Cl)c1 [II-C]
[out] 0

[in] Determine whether this compound has Mean Sleeping Time, Secobarbital no lower than 50 min: C#CCn1nc(Cl)c2ccccc21 [III-B]
[out] 1

[in] Could you verify whether the entry C#CCOCc1ccc([N+](=O)[O-])cc1Cl [II-N] shows Mean Sleeping Time, Secobarbital of no less than 50 min?
[out] 0

[in] Confirm if Mean Sleeping Time, Secobarbital reported for the compound C#CCON=Cc1ccc(N(C)C)cc1 [I-C] is 50 min or above.
[out] 1

[in] Given the entry C#CCOCc1c(Cl)ccc(Cl)c1Cl [II-E] , answer whether its Mean Sleeping Time, Secobarbital meets or surpasses 50 min.
[out] 0

[in] For this compound, is measured Mean Sleeping Time, Secobarbital 50 min or higher? C#CCON=C(C)c1ccc2ccccc2c1 [I-F]
[out] 1

[in] Textbook exercise: given the entry C#CCOCc1cccc([N+](=O)[O-])c1Cl [II-L] , state whether its Mean Sleeping Time, Secobarbital is greater than or equal to 50 min.
[out] 0

[in] Is reported Mean Sleeping Time, Secobarbital greater than or equal to 50 min here: C#CCOCc1ccc([N+](=O)[O-])c(Cl)c1 [II-O]
[out] 0

[in] // inclusive: Mean Sleeping Time, Secobarbital at least 50 min? input: C#CCn1ncc2ccc(Cl)cc21 [III-D]
[out] 1

[in] Check the entry C#CCOCc1ccc([N+](=O)[O-])cc1 [II-Q, 4-nitrobenzyl 2-propynyl ether] : does Mean Sleeping Time, Secobarbital equal or exceed 50 min?
[out] 1

[in] Evaluate C#CCON=Cc1cccc2ccccc12 [I-I] : Mean Sleeping Time, Secobarbital at minimum 50 min?
[out] 1

[in] Quick check: does C#CCOCc1ccc(Cl)cc1[N+](=O)[O-] [II-J] have Mean Sleeping Time, Secobarbital greater than or equal to 50 min?
[out] 0

[in] Decide: Mean Sleeping Time, Secobarbital of C#CCON=C(C)c1ccc(Cl)cc1 [I-D] >= 50 min?
[out] 1

[in] # bool: Mean Sleeping Time, Secobarbital of C#CCOCc1cc(Cl)c(Cl)cc1Cl [II-F] >= 50 min
[out] 0

[in] Decide: Mean Sleeping Time, Secobarbital of C#CCOCc1ccccc1[N+](=O)[O-] [II-P, 2-nitrobenzyl 2-propynyl ether] >= 50 min?
[out] 0
